Data credit: PubChem BioAssay

Test system: Sonic hedgehog protein (Shh)
MEASUREMENT PROTOCOL: small-molecule binders of Shh protein, primary screen, biochemical, small-molecule microarray, 635/667 nm fluorescence (AID 1151);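 also: Shh protein binding to compounds spotted on small-molecule microarray slides; score combines spot fluorescence intensity with signal-to-noise across triplicate slides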
STATED CONDITIONS: small-molecule microarray binding, 635 nm fluorescence; higher = more signal
TEST READOUT: composite z-score

ENTRY SMILES	TESTED SYSTEM	TEST READOUT	ENDPOINT RESULT
NCCCCCCNC(=O)[C@@H]1C[C@@H]2C(=O)NCC(=O)N2[C@@H]1c1cccc(OCCO)c1	Sonic hedgehog protein (Shh)	composite z-score	1.31
COc1ccc([Si](C)(C)[C@H]2[C@H](CC(=O)N(CCO)Cc3ccccc3)O[C@@]3(C(=O)N(Cc4cccc(N5CCCCC5=O)c4)c4ccccc43)[C@@H]2C)cc1	Sonic hedgehog protein (Shh)	composite z-score	2.13
Cc1ccc(S[C@]2(C(=O)NC(C)C)CC(=O)N(Cc3ccccc3)[C@@H]2c2ccc(CO)cc2I)cc1	Sonic hedgehog protein (Shh)	composite z-score	-0.421
CC(C)[Si]1(C(C)C)OCc2cc(-c3ccc(-c4ccc(Cl)c(Cl)c4)o3)nc(-c3ccc(Oc4ccccc4)cc3)c21	Sonic hedgehog protein (Shh)	composite z-score	-0.976
